STUDY SYSTEM: P2X7 (UniProt Q99572)
METHOD SUMMARY: P2X7 pKi of Table 1
Type: cell-based
Description: Intracellular Calcium Flux (FLIPR) Assay Compound and Reagent Preparation Stock solutions of compounds were prepared from powders as a 10 mM DMSO stock solution. These solutions were stored at RT during the two week period of these experiments to prevent freeze-thaw of the DMSO stocks. The DMSO stocks were added to the appropriate assay buffer at a concentration of 10 μM, and then diluted serially to the final concentrations that were tested. […]
OBSERVATION TYPE: pKi

INSERT INTO results (molecule, reading) VALUES
  ('Cc1ccc(C(F)(F)F)cc1NC(=O)C1=CNC(=O)CC1c1cccc(F)c1 (centres unmarked)', 6.89),
  ('Cc1ccc(C(C)O)cc1NC(=O)C1=CNC(=O)C[C@H]1c1cccc(F)c1 (some centres unmarked)', 7.2),
  ('COc1cc(NC(=O)C2=CNC(=O)CC2c2ccc(F)cc2)ccc1C (centres unmarked)', 6.03),
  ('CNC(=O)COc1cc(NC(=O)C2=CNC(=O)C[C@H]2c2ccc(F)cc2)c(C)cc1Cl', 6.24),
  ('Cc1c(Cl)cccc1NC(=O)C1=CNC(=O)C[C@H]1c1ccc(F)cc1', 7.83),
  ('Cc1cc(Cl)c(CCO)cc1NC(=O)C1=CNC(=O)C[C@H]1c1ccc(F)cc1', 7.52),
  ('Cc1cc(C)c(Br)c(NC(=O)C2=CNC(=O)CC2c2ccc(F)cc2)c1 (centres unmarked)', 7.48),
  ('O=C1C[C@H](c2ccc(F)cc2)C(C(=O)Nc2cc(OCCO)c(Cl)cc2Br)=CN1', 6.245);

====

STUDY SYSTEM: P2X7 (UniProt Q99572)
METHOD SUMMARY: P2X7 pKi of Table 1
Assay type: cell-based
OBSERVATION TYPE: pKi

# annotated cases, reported pKi shown
INSERT INTO results (molecule, study_system, observation_type, reading) VALUES
  ('CC(=O)Nc1ccc(Cl)c(NC(=O)C2=CNC(=O)CC2c2cccc(F)c2)c1 (centres unmarked) [Compound 21]', 'P2X7 (UniProt Q99572)', 'pKi', 6.02),
  ('CCN1C=C(C(=O)Nc2cc(OC)c(OC)cc2C)[C@H](c2ccc(F)cc2)CC1=O [Compound 144]', 'P2X7 (UniProt Q99572)', 'pKi', 7.06),
  ('Cc1ccc(Cl)cc1NC(=O)C1=CNC(=O)C[C@H]1c1cccc(F)c1 [Compound 92]', 'P2X7 (UniProt Q99572)', 'pKi', 6.995),
  ('COc1ccc(Br)c(NC(=O)C2=CNC(=O)CC2c2ccc(F)cc2)c1 (centres unmarked) [Compound 18]', 'P2X7 (UniProt Q99572)', 'pKi', 6.08),
  ('Cc1ccccc1NC(=O)C1=CNC(=O)C[C@H]1c1ccc(F)cc1 [Compound 101]', 'P2X7 (UniProt Q99572)', 'pKi', 6.415),
  ('CC(=O)c1ccc(C)c(NC(=O)C2=CNC(=O)C[C@H]2c2ccc(F)cc2)c1 [Compound 93]', 'P2X7 (UniProt Q99572)', 'pKi', 6.86);

a = O=C1CC(c2ccccc2)C(C(=O)NC2CCc3ccccc32)=CN1 (centres unmarked) [Compound 136]
b = COc1cc(C)c(C)c(NC(=O)C2=CNC(=O)C[C@H]2c2ccc(F)cc2)c1 [Compound 113]
Query: Kindly identify which of a and b has the larger recorded pKi value. Reply briefly: the label of your chosen item.
Reply: b
